Value source: ChEMBL document CHEMBL1130553

# targetSystem: Tyrosine-protein kinase Fyn (Homo sapiens, UniProt P06241)
# Sequence (P06241 whole entry, the tested form may be a part): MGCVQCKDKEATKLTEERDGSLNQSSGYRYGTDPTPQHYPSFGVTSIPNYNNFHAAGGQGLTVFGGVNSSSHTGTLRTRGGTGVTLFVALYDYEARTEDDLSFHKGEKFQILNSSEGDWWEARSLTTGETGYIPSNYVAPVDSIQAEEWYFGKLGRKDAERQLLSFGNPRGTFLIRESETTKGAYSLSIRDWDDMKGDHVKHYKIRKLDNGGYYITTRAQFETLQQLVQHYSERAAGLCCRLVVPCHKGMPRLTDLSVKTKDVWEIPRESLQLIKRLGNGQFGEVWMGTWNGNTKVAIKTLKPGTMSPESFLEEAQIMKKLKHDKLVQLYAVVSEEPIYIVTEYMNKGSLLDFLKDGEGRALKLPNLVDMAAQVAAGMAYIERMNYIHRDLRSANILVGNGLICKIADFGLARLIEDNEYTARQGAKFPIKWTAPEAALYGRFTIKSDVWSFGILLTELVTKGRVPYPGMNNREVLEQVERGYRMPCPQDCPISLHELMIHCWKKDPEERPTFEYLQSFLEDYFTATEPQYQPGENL
# test: Inhibition of peptide EPQ (pY) EEIPI binding to Fyn protein kinase SH2 domain

{"columns": ["molecule", "IC50 (µM)"],
 "data": [
  ["Oc1cc2c(cc1O)CC(N1CCCCC1)C2", 10],
  ["CCCN(CCC)C1Cc2cc(O)c(O)cc2C1", 10],
  ["NC1Cc2cc(O)c(O)cc2C1", 10],
  ["CCCN(CCC)C1Cc2c(O)ccc(O)c2C1", 50],
  ["Oc1cc2c(cc1O)CC(NCc1ccccc1)C2", 10],
  ["CCCC1Cc2cc(O)c(O)cc2C1", 1],
  ["CC1=CC(=O)C(=O)C=C1C", 1],
  ["CCCN(CCC)C1CCc2cc(O)c(O)cc2C1 (stereo not drawn)", 50]
]}
